All figures here come from PubChem BioAssay.

# System: glycogen synthase kinase-3 (GSK3A per assay name; protocol says GSK3B)
# assay_name: compounds binding glycogen synthase kinase-3 – biochemical, small-molecule microarray, 635 nm fluorescence, GSK3A, primary screen (AID 1103); note: the record names both GSK3A and GSK3B
# experimental_parameters: fluorescence 635 nm, higher = more signal
Measured composite z-score accompanies every entry in the list below.

compound=O=C(NCCN1CCOCC1)[C@@H]1c2ccccc2C(=O)N(C2Cc3ccccc3C2)[C@H]1c1ccc(CO)cc1 assayed_system="glycogen synthase kinase-3 (GSK3A per assay name; protocol says GSK3B)" test_result=1.05

What reported composite z-score corresponds to C=CC[C@@]1(C(=O)NCCCOC)N=C(c2ccc(OCCCO)cc2)O[C@@H]1c1ccccc1 on glycogen synthase kinase-3 (GSK3A per assay name; protocol says GSK3B)?
0.326

What reported composite z-score corresponds to CC(C)C[C@@H]1NC(=O)[C@@H]2C[C@H](C(=O)NCCCCCCN)[C@H](c3cccc(OCCO)c3)N2C1=O on glycogen synthase kinase-3 (GSK3A per assay name; protocol says GSK3B)?
0.712

What reported composite z-score corresponds to CC(C)(C)OC(=O)CC[C@@]1(C(=O)NCC(O)CO)N=C(c2ccc(OCCCO)cc2)O[C@@H]1c1ccccc1CN=[N+]=[N-] (some centres undefined) on glycogen synthase kinase-3 (GSK3A per assay name; protocol says GSK3B)?
0.706

---

Measured z-score accompanies every entry in the list below.
# assay_name: forskolin-driven CRE-LacZ activity in PC12 – cell-based, CRE-LacZ reporter, forskolin-stimulated, primary screen (AID 1146);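 note: PC12 cells with 6xCRE LacZ reporter stimulated by forskolin 10 µM; beta-galactosidase reporter signal reflecting CREB driven transcription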
# experimental_parameters: luminescence, 4.5 h, higher = more signal, called active from +8 up or from −8 down
The source made the active and inactive calls.

Examples from the recorded data:
compound=CC(C)[Si]1(C(C)C)OCc2cc(C3CC3)nc(-c3ccc(Oc4ccccc4)cc3)c21 readout_name=z-score test_result="0.0211 (inactive)"
compound=O=C(NCCN1CCOCC1)[C@@H]1c2ccccc2C(=O)N(C2Cc3ccccc3C2)[C@H]1c1ccc(CO)cc1 readout_name=z-score test_result="-1.42 (inactive)"
compound=CN(C)C(=O)[C@]1(CCC(=O)OC(C)(C)C)N=C(c2ccc(OCCCO)cc2)O[C@@H]1c1ccccc1CN=[N+]=[N-] readout_name=z-score test_result="-0.147 (inactive)"
compound=COc1ccc([Si](C)(C)[C@H]2[C@H](CC(=O)N3CCC[C@H]3CO)O[C@@]3(C(=O)N(Cc4ccc(N5CCOC5=O)cc4)c4ccccc43)[C@@H]2C)cc1 readout_name=z-score test_result="-0.101 (inactive)"
compound="CC(C)c1ccc(NN2C(C(O)c3ccc(F)cc3)C=CC3C(=O)N(c4ccccc4)C(=O)C32)cc1 (stereo not drawn)" readout_name=z-score test_result="0.3 (inactive)"
compound=NCCCCCNC(=O)[C@H]1C[C@H]2C(=O)N3CCC[C@H]3C(=O)N2[C@H]1c1cccc(OCCO)c1 readout_name=z-score test_result="-0.0024 (inactive)"
compound="CCCC1(C(=O)OC)C=C2C(=C(C)C(=O)C2C)CN1 (stereo not drawn)" readout_name=z-score test_result="2.15 (inactive)"

Alright, here's another compound for you.
Could you share which z-score value was measured for C=CCC(OC(C)=O)[C@@H]1[C@@H](N(Cc2ccc(-c3cccc(C(F)(F)F)c3)o2)C(=O)c2ccc(-c3ccccc3)cc2)c2cc(OCCCO)ccc2N1C(=O)Cc1ccc2ccccc2c1 (stereo partly drawn) ?
0.368 (inactive)
